Measured values drawn from patent US20220169677A1 for this set.

- TESTED_SYSTEM: T1, recombinant human NRP-1 (human, UniProt O14786-2 22-644, limits assumed)
- T1 construct: Coated on a 96-well plate at 200 ng/well; GenBank AAC51759.1 is printed only as the preferred definition of NRP-1; also called Neuropilin-1
- T1 sequence (looked up): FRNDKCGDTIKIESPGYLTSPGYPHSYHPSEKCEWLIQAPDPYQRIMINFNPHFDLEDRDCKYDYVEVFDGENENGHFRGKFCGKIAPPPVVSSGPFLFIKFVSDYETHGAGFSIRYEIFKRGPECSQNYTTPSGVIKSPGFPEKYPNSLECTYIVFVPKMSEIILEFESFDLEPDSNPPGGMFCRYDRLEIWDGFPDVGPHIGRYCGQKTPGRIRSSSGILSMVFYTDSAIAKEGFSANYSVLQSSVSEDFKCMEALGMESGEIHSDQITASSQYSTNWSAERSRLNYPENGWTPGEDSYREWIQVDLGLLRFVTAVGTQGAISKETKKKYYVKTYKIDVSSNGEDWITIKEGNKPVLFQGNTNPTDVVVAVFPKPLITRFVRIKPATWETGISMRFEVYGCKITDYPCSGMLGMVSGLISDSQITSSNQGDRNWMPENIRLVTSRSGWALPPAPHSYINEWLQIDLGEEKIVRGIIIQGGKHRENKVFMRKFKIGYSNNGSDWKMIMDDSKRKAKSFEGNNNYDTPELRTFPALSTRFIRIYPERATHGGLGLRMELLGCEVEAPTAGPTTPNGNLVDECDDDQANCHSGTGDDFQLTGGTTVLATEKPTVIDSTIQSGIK
- TEST_SUMMARY: chemiluminescence competition: inhibition of (bt)-VEGF-A165 binding to coated NRP-1
// values below are reported pIC50
Reminder that pIC50 means the negative base-10 logarithm of the concentration expressed in mol/L.

The cases that follow already have their pIC50 on record.
BINDER	pIC50
H-CTKPR-OH (TKPR (tuftsin) with an added N-terminal Cys; also called CTKPR) [H2N-Cys-Thr-Lys-Pro-Arg-OH]	4.72
H-CKPRR-OH (KPRR (peptide derived from the VEGF-A165 C-terminus) with an added N-terminal Cys; also called CKPRR) [H2N-Cys-Lys-Pro-Arg-Arg-OH]	7.00

Consider now this further binder.
The reported pIC50 of the binder H-CLPPR-OH (LPPR (active part of A7R) with an added N-terminal Cys; also called CLPPR) [H2N-Cys-Leu-Pro-Pro-Arg-OH] was 4.77
